system: A549 cells; assay: MTT cytotoxicity assay, A549 cells transfected with α-enolase siRNA; conditions: read-out: α-Enolase (EC50); A549 cells, α-enolase specific siRNA
pEC50: −log10 of the molar value.
result-type: pEC50

[[record]]
compound = "N.N.[Cl][Pt][Cl] [Cisplatinum]"
system_tested = "A549 cells"
meas_value = 3.66


###

system: MDA-435 cells; experiment: cells; format: cell-based, human; conditions: Homo sapiens, MDA435; MDA-435 cells, Eno-1 stealth siRNA; read-out: Eno-1 ST (EC50)
pEC50: −log10 of the molar value.
Quick reference for pEC50 among some compounds
result-type: pEC50

[[record]]
query_smiles = "CC(=O)O[C@H]1C(=O)[C@@]2(C)[C@H]([C@H](OC(=O)c3ccccc3)[C@]3(O)C[C@H](OC(=O)[C@H](O)[C@@H](NC(=O)c4ccccc4)c4ccccc4)C(C)=C1C3(C)C)[C@]1(OC(C)=O)CO[C@@H]1C[C@@H]2O"
meas_value = 9.83

[[record]]
query_smiles = "CC(=O)O[C@@]12CO[C@@H]1C[C@H](O)[C@@]1(C)C(=O)[C@H](O)C3=C(C)[C@@H](OC(=O)[C@H](O)[C@@H](NC(=O)OC(C)(C)C)c4ccccc4)C[C@@](O)([C@@H](OC(=O)c4ccccc4)[C@H]21)C3(C)C"
meas_value = 9.91

[[record]]
query_smiles = "CC[C@]1(O)C[C@@H]2CN(CCc3c([nH]c4ccccc34)[C@@](C(=O)OC)(c3cc4c(cc3OC)N(C)[C@H]3[C@@](O)(C(=O)OC)[C@H](OC(C)=O)[C@]5(CC)C=CCN6CC[C@]43[C@@H]65)C2)C1"
meas_value = 9.04

[[record]]
query_smiles = "CC[C@]1(O)C[C@H]2CN(CCc3c([nH]c4ccccc34)[C@@](C(=O)OC)(c3cc4c(cc3OC)N(C=O)[C@H]3[C@@](O)(C(=O)OC)[C@H](OC(C)=O)[C@]5(CC)C=CCN6CC[C@]43[C@@H]65)C2)C1"
meas_value = 9.49


###

system: MCF-7 cells; assay: MTT cytotoxicity assay, MCF-7 cells transfected with α-enolase siRNA; format: cell-based, human; details: MCF-7 cells, control siRNA, 72 hrs drug; read-out: Control (EC50)
result-type: EC50 (µM)

[[record]]
molecule = "N.N.[Cl][Pt][Cl] [Cisplatinum]"
system_tested = "MCF-7 cells"
result_type = "EC50"
unit_symbol = "µM"
meas_value = 118


###

Quick reference for EC50 among some compounds
tested on: MDA-435 cells; assay: cells; assay type: cell-based, human; settings: Homo sapiens, MDA435; MDA-435 cells, control siRNA; read-out: Control (EC50)
result-type: EC50 (nM)

[[record]]
query_smiles = "CC(=O)O[C@@]12CO[C@@H]1C[C@H](O)[C@@]1(C)C(=O)[C@H](O)C3=C(C)[C@@H](OC(=O)[C@H](O)[C@@H](NC(=O)OC(C)(C)C)c4ccccc4)C[C@@](O)([C@@H](OC(=O)c4ccccc4)[C@H]21)C3(C)C"
meas_value = 0.645

[[record]]
query_smiles = "CC(=O)O[C@H]1C(=O)[C@@]2(C)[C@H]([C@H](OC(=O)c3ccccc3)[C@]3(O)C[C@H](OC(=O)[C@H](O)[C@@H](NC(=O)c4ccccc4)c4ccccc4)C(C)=C1C3(C)C)[C@]1(OC(C)=O)CO[C@@H]1C[C@@H]2O"
meas_value = 1.1

[[record]]
query_smiles = "CC[C@]1(O)C[C@@H]2CN(CCc3c([nH]c4ccccc34)[C@@](C(=O)OC)(c3cc4c(cc3OC)N(C)[C@H]3[C@@](O)(C(=O)OC)[C@H](OC(C)=O)[C@]5(CC)C=CCN6CC[C@]43[C@@H]65)C2)C1"
meas_value = 0.709

[[record]]
query_smiles = "CC[C@]1(O)C[C@H]2CN(CCc3c([nH]c4ccccc34)[C@@](C(=O)OC)(c3cc4c(cc3OC)N(C=O)[C@H]3[C@@](O)(C(=O)OC)[C@H](OC(C)=O)[C@]5(CC)C=CCN6CC[C@]43[C@@H]65)C2)C1"
meas_value = 0.246


###

system: H460 cells; test: MTT cytotoxicity assay, H460 cells transfected with α-enolase siRNA; format: cell-based, human
result-type: viability of α-enolase-silenced cells under drug treatment vs control cells

[[record]]
compound = "O=C1c2c(O)ccc(O)c2C(=O)c2c(NCCNCCO)ccc(NCCNCCO)c21"
meas_value = "decreased the viability"

[[record]]
compound = "CC[C@]1(O)C[C@@H]2CN(CCc3c([nH]c4ccccc34)[C@@](C(=O)OC)(c3cc4c(cc3OC)N(C)[C@H]3[C@@](O)(C(=O)OC)[C@H](OC(C)=O)[C@]5(CC)C=CCN6CC[C@]43[C@@H]65)C2)C1"
meas_value = "decreased the viability"

[[record]]
compound = "COc1cc([C@@H]2c3cc4c(cc3[C@@H](O[C@@H]3O[C@@H]5CO[C@@H](C)O[C@H]5[C@H](O)[C@H]3O)[C@H]3COC(=O)[C@H]23)OCO4)cc(OC)c1O [Etoposide]"
meas_value = "decreased the viability"

